System: MDA-MB-231 breast
Experiment: NCI tumour cell line growth inhibition, 48 h
observable: TGI

Consider the reported TGI for these molecules:
COC(=O)C1CN=CN1CCc1ccccc1 (centres undefined)	> 100 µM
O=C(CCCN1CCC2(CC1)CC(=O)N(N1CCCCCC1)C2=O)c1ccccc1	> 100 µM
COc1ccc(CC(=O)N2CCC3(C)CC(=O)CC=C23)cc1OC (centres undefined)	> 100 µM

Next, consider the following molecule.
Data request: Requested field: TGI. Item: CC(=O)Oc1ccc(-c2cc3ccccc3oc2=O)cc1
Data returned: > 100 µM

====

System: NCI-H522 lung
Test: NCI tumour cell line growth inhibition, 48 h
observable: TGI

Consider the reported TGI for these compounds:
Cc1nn(C(=O)Cc2ccccc2)c2c1C(c1ccc(O)cc1O)SC(N)=N2 (stereo not given)	> 100 µM
CCOC(=O)/C=C/n1c2ccccc2c(=O)c2ccccc21	> 100 µM
Cn1c(O)c(C=Nc2ccccc2[N+](=O)[O-])c(=O)n(C)c1=O	> 100 µM

Data request: Requested field: TGI. Item: Cc1nn(C(=O)c2ccc(Cl)cc2)c2c1C(c1ccccc1[N+](=O)[O-])SC(N)=N2 (stereo not given)
Data returned: > 10 µM

Data request: How about this compound: N#C/C(c1nc2ccccc2[nH]1)=c1\s/c(=C/c2ccc(Cl)cc2)c(=O)n1-c1ccccc1
Data returned: > 100 µM
